Across several publications, the following Ki results were reported for Cannabinoid receptor 1 (Homo sapiens).
The label Met is reserved for Ki strictly under 200 nM; Not met covers values equal to or above it.

compound: O=S(=O)(NC1CCN(c2ncnc3c2nc(-c2ccccc2Cl)n3-c2ccc(Cl)cc2)CC1)c1ccccc1
class: Met
//
compound: CN[C@@H]1CCCC[C@H]1NC(=O)c1cn(-c2ccc(Cl)cc2)c(-c2ccc(Cl)cc2Cl)n1
class: Not met
//
compound: O=S(=O)(NCC[C@@H]1CC[C@@H](c2ccc(Cl)cc2Cl)N(c2ccc(Cl)cc2)C1)C1CC1
class: Met
//
compound: Cc1c(C(=O)NN2CCCCC2)nc(-c2ccc(Cl)cc2Cl)n1-c1ccc(F)cc1
class: Met
//
compound: O=C(NC1CCCCC1)N1CCN(C(c2ccccc2)c2ccc(Cl)c(Cl)c2)CC1 (centres undefined)
class: Met
//
compound: CCCCS(=O)(=O)N[C@@H](C)c1ccc(S(=O)(=O)c2ccc(OC)cc2S(=O)(=O)c2ccc(OC)cc2)cc1
class: Not met
//
compound: CCN(CC)c1ccc(CN(Cc2ccco2)S(=O)(=O)c2ccc(C(C)C)cc2)cc1
class: Not met
//
compound: Cc1c(C(=O)NCCc2ccc(Cl)c(Cl)c2)nn(-c2ccc(Cl)cc2Cl)c1-n1cccc1
class: Met
//
compound: Cc1ccc(C(=O)n2cc(/C=N/Nc3nc(N4CCOCC4)nc(N4CCOCC4)n3)c3ccccc32)cc1
class: Not met

====

Across several publications, the following pKi results were reported for UniProt P21554.
pKi: −log10 of the molar value.
Please enter 1.0 where pKi is greater than or equal to 7, and 0.0 where it is lower.

compound: O=C(NC1CCCCC1)N1CCN(C(c2ccccc2)c2cc(Cl)ccc2Cl)CC1 (stereo not given)
class: 1.0

compound: COc1ccc(COc2n[nH]c3ccc([N+](=O)[O-])cc23)cc1
class: 0.0

compound: O=C(NN1CCOCC1)C1=NN(c2ccc(Cl)cc2Cl)C(c2ccc(Cl)cc2)C1.O=S(=O)(O)O (single isomer, unassigned; 28)
class: 0.0

compound: O=C1C(c2ccc(Cl)cc2)N(c2ccccc2)C(=O)N1c1ccccc1 (stereo not given)
class: 0.0

compound: CCN(CC)c1ccc(CN(c2ncc(C)s2)S(=O)(=O)c2ccc(OC)cc2)cc1
class: 0.0

compound: CC(=O)Cn1nnc(Cc2ccc(-c3ccccc3)cc2)n1
class: 0.0

compound: Cc1c(C(=O)NOC(C)(C)C)nc(-c2ccc(Cl)cc2Cl)n1-c1ccc(Cl)cc1
class: 0.0

compound: Cc1c(C(=O)NCc2ccc(Cl)c(Cl)c2)nn(-c2ccc(F)cc2F)c1-n1c(C)ccc1C
class: 1.0

compound: Cc1ccc(NC(=O)c2cccc(Cl)c2)cc1S(=O)(=O)N1CCOCC1
class: 0.0

compound: Cc1ccc(NC(=O)c2ccccc2Cl)cc1S(=O)(=O)N1CCOCC1
class: 0.0

compound: O=C(NC1CCCCC1)[C@@H]1CC[C@@H](c2ccc(Cl)cc2Cl)N(c2ccc(Cl)cc2)C1
class: 1.0

compound: CC(C)NC(=O)C(C)Sc1nnc2c3ccccc3n(Cc3ccccc3)c2n1 (stereo not given)
class: 0.0

compound: CCOC(=O)c1c(N)sc2c1CCCC2
class: 0.0

compound: Cc1c(C(=O)NCCc2ccc(Cl)cc2)nn(-c2ccc(Cl)c(Cl)c2)c1-n1cccc1
class: 0.0

compound: Cc1c2c(n(-c3ccc(Cl)cc3)c1-c1ccc(Cl)cc1Cl)CCN(C1CCCCC1)C2=O
class: 0.0

compound: N#Cc1c(C(=O)NN2CCCCC2)nn(-c2ccc(Cl)cc2Cl)c1-c1ccc(OCF)cc1
class: 1.0

compound: Cc1c(C(=O)NN2CCCCC2)nn(-c2ccc(Cl)cc2Cl)c1-c1ccc(C#CCCOC(=O)CCCCCN)cc1
class: 0.0

compound: COc1ccc(S(=O)(=O)NC(=N)N2CC(c3ccccc3)C(c3ccc(Cl)cc3)=N2)cc1 (stereo not given)
class: 0.0

compound: Cc1c(C(=O)N(C)CCc2ccccc2)oc2ccc(S(=O)(=O)N3CC(C)CC(C)C3)cc12 (stereo not given)
class: 0.0
